Value source: patent US20190117653A1

Biological target: L-type calcium channel (Homo sapiens, UniProt Q13936)
Sequence (Q13936 whole entry): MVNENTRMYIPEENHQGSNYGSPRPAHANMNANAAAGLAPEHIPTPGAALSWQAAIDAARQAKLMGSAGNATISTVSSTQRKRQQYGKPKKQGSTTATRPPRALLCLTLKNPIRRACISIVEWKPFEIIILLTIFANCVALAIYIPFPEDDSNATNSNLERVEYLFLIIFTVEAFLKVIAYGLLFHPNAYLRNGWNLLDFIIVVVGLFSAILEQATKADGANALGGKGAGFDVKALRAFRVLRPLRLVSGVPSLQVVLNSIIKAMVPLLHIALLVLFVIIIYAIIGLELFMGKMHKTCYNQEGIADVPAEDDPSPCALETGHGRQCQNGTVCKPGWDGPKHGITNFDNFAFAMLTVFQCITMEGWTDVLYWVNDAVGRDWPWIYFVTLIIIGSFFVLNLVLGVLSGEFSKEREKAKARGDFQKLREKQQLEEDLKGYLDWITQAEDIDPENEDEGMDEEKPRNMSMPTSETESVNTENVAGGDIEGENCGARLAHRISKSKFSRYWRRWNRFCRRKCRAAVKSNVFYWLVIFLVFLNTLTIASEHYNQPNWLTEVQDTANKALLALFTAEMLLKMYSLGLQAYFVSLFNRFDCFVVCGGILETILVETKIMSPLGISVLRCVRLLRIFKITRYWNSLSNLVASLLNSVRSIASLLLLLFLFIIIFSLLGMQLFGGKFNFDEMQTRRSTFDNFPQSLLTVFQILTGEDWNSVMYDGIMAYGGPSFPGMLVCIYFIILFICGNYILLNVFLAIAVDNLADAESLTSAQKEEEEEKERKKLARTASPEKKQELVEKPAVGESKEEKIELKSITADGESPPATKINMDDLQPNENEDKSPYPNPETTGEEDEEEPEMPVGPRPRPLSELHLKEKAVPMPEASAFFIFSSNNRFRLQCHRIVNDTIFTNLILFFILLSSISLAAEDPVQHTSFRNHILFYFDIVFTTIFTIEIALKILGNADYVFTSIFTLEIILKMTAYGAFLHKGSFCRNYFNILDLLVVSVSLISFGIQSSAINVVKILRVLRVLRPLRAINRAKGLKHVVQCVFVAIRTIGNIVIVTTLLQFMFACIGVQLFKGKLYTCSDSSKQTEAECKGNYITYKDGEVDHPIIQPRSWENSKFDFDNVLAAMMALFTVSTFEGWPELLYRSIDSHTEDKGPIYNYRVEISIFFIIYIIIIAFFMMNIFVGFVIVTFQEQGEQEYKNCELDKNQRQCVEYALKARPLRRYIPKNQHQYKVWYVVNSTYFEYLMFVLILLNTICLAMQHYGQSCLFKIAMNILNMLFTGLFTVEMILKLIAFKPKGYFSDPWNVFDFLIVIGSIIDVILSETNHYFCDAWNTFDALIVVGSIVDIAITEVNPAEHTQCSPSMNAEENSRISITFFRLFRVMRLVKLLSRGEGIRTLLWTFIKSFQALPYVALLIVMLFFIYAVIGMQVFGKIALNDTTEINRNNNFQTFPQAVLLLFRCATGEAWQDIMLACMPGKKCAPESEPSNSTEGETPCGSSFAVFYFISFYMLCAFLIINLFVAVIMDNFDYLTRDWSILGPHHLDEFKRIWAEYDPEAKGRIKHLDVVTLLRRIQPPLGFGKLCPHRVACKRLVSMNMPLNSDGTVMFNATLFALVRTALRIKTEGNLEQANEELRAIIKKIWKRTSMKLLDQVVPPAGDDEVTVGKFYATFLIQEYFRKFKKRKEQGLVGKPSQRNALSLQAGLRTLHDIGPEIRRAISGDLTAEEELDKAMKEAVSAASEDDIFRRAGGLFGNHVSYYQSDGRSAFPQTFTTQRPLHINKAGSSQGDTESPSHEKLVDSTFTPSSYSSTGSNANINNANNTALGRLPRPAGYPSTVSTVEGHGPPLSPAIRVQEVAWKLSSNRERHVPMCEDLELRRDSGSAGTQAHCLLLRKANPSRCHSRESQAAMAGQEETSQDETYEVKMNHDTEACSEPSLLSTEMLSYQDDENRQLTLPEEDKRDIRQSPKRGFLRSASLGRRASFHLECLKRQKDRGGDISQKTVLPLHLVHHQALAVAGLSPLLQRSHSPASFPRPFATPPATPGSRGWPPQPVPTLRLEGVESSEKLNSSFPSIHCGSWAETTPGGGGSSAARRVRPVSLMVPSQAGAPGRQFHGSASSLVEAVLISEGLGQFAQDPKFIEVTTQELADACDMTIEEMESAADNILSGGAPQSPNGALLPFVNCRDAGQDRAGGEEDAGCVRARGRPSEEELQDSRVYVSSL
Test: L-type calcium channel inhibition
Assay type: cell-based
Reported endpoint: IC50 (µM)
Express the result in µM but write the number alone.

Data request: // lookup IC50 | system=L-type calcium channel (Homo sapiens, UniProt Q13936) | key= COc1cc(Cc2cnc(N)nc2N)c2c(c1OC)OC(C1CC1)C=C2 (racemic) [Iclaprim]
Data returned: 46
